target or test system: 5-Lipoxygenase (Homo sapiens, UniProt P09917)
Construct: endogenous in cells; host or cells: whole blood of male human donors (results per 10^6 neutrophils)
protocol text: Inhibition of 5-Lipoxygenase in Human Whole Blood (ionophore A23187-stimulated LTB4)
Format: cell-based
test settings: 10 μM
metric name: inhibition at 10 µM
Answer with the value and then the unit.

Please give inhibition at 10 µM, item by item, for the list that follows.
1. Cc1oc(-c2ccccc2)nc1CCOc1ccc(C(C)N(O)C(N)=O)cc1 (stereo not shown)
2. NC(=O)N(O)Cc1ccc(OCCc2csc(-c3ccccc3)n2)cc1

Response:
1: 60%; 2: 93%

* * *

Please provide measured inhibition at 1 µM for the entries that follow.
target or test system: 5-Lipoxygenase (Homo sapiens)
Construct: endogenous in cells; host or cells: whole blood of male human donors (results per 10^6 neutrophils)
Sequence (P09917 1-674): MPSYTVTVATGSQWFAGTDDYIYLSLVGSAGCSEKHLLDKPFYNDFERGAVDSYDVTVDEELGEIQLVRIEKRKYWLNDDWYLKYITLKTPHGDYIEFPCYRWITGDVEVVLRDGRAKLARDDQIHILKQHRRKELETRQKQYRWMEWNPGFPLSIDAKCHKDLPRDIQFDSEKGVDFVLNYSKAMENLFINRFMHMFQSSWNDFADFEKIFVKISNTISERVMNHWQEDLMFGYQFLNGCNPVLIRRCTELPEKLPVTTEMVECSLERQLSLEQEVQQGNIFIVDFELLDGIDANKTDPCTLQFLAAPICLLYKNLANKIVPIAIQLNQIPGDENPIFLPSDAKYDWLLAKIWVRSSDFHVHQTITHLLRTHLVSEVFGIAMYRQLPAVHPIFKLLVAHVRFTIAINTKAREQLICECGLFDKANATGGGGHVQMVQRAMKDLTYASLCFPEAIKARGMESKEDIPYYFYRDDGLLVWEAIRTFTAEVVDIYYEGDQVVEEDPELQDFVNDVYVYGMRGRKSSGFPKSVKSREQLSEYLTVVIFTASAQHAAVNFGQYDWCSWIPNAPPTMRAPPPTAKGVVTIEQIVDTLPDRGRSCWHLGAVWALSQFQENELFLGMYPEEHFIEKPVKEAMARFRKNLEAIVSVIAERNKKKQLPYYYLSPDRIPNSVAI
protocol text: Inhibition of 5-Lipoxygenase in Human Whole Blood (ionophore A23187-stimulated LTB4)
Format: cell-based
test settings: 1 μM
Numbers only, in %.

Before answering, review these 5 worked examples.
>>> df
                                   molecule         metric_name  test_result
0  Cc1oc(-c2cccc(F)c2)nc1CCOc1ccc(CN(O)C(N)=O)cc1 [Example 7]  inhibition at 1 µM           63
1  NC(=O)N(O)Cc1ccc(OCCc2noc(-c3ccccc3)n2)cc1 [Example 21]  inhibition at 1 µM           70
2  CC(=O)N(O)Cc1ccc(OCCN(C)c2nc3ccccc3o2)cc1 [Example 23]  inhibition at 1 µM           39
3  Cc1oc(-c2ccc(C(F)(F)F)cc2)nc1CCOc1c(Cl)cc(CN(O)C(N)=O)cc1Cl [Example 15]  inhibition at 1 µM           38
4  COc1ccc(-c2nc(CCOc3ccc(CN(O)C(N)=O)cc3)c(C)o2)cc1 [Example 3]  inhibition at 1 µM           57

Please give inhibition at 1 µM, item by item, for the list that follows.
1. Cc1oc(-c2ccccc2)nc1CCOc1ccc(CN(O)C(N)=O)cc1 [Example 1]
2. NC(=O)N(O)Cc1cccc(OCCc2csc(-c3ccc(C(F)(F)F)cc3)n2)c1 [Example 20]
3. Cc1oc(-c2ccc(C(F)(F)F)cc2)nc1CCOc1ccc(CN(O)C(N)=O)cc1F [Example 14]
4. Cc1oc(-c2ccc(C(F)(F)F)cc2)nc1CCOc1ccc(CN(O)C(N)=O)cc1 [Example 13]

Response:
[55, 30, 36, 47]

Please give inhibition at 1 µM, item by item, for the list that follows.
1. Cc1oc(-c2ccccc2F)nc1CCOc1ccc(CN(O)C(N)=O)cc1 [Example 6]
2. Cc1oc(-c2ccccc2)nc1CCOc1cccc(CN(O)C(N)=O)c1 [Example 2]
3. Cc1oc(-c2ccccc2)nc1CCOc1cccc(C(C)N(O)C(N)=O)c1 (centres unmarked) [Example 5]
4. Cc1oc(-c2ccccc2)nc1CCOc1ccc(CN(O)C(N)=O)cc1F [Example 12]
5. Cc1ccc(-c2nc(CCOc3ccc(CN(O)C(N)=O)cc3)c(C)o2)cc1 [Example 11]

Response:
1. 54
2. 51
3. 34
4. 71
5. 40
